Biological target: human Oxytocin (OTR) receptor (Homo sapiens)
Sequence (P30559 1-389): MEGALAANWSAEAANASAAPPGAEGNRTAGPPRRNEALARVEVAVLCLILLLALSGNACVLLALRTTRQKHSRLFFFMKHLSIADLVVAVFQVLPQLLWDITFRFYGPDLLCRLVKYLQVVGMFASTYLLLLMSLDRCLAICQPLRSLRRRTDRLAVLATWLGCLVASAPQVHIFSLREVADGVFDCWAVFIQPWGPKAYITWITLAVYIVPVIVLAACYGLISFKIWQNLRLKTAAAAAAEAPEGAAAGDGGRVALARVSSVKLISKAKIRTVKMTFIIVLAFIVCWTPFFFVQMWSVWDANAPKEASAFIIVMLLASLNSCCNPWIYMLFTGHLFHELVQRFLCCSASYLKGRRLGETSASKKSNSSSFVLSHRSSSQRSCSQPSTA
Test: Calcium flux assay (FLIPR), agonist mode, CHO cells expressing human OTR
Conditions: calcium flux in CHO cells expressing human OTR, read-out: hEC50
pEC50: −log10 of the molar value.
measurement label: pEC50

Study these solved cases before continuing.
* O=S(=O)(Nc1ccnn1-c1ccc(F)cc1)c1ccc(Cl)cc1 [Example 7] | 5.61
* Cc1csc(-n2nccc2NS(=O)(=O)c2ccc(C(F)(F)F)cc2)n1 [Example 9] | 6.28

[P] O=S(=O)(Nc1ccnn1-c1ncccn1)c1ccc(C(F)(F)F)cc1 [Example 12]
[Q] Cc1csc(-n2nccc2NS(=O)(=O)c2ccc(Cl)cc2)n1 [Example 10]
[R] O=S(=O)(Nc1ccnn1-c1ccccn1)c1ccc(C(F)(F)F)c(F)c1 [Example 24]
[ask] In this exercise, place the 3 molecules in ascending sequence of their recorded pEC50. To answer, arrange all of the labels according to the requested order.
[reply] P, R, Q

[I] Cc1ccnc(-n2nccc2NS(=O)(=O)c2ccc(Cl)cc2)c1 [Example 17]
[II] O=S(=O)(Nc1ccnn1-c1ccccn1)c1ccc(OC(F)F)cc1 [Example 6]
[ask] Which one would you say has the larger pEC50 value: I , or II ? Use the label to indicate which entry you chose.
[reply] I

[A] Cc1csc(-n2nccc2NS(=O)(=O)c2ccc(Cl)cc2F)n1 [Example 26]
[B] O=S(=O)(Nc1ccnn1-c1ccccn1)c1ccc(SC(F)(F)F)cc1 [Example 20]
[ask] Kindly compare A with B and tell me which has the lower pEC50 figure. Refer to your chosen item by its label in the answer.
[reply] A

---

biological target: human Oxytocin (OTR) receptor (Homo sapiens); assay: Calcium flux assay (FLIPR), agonist mode, CHO cells expressing human OTR; conditions: calcium flux in CHO cells expressing human OTR, read-out: hEC50
measurement label: EC50 (nM)

* Cc1ccnc(-n2nccc2NS(=O)(=O)c2ccc(C#N)cc2)c1 | 63
* O=S(=O)(Nc1ccnn1-c1ccccn1)c1ccc(C(F)(F)F)cc1Cl | 91

[1] CC(F)c1ccc(S(=O)(=O)Nc2ccnn2-c2ccccn2)cc1 (stereo not drawn)
[2] O=S(=O)(Nc1ccnn1-c1ccnc(C(F)(F)F)n1)c1ccc(C(F)(F)F)cc1
[ask] Of 1 and 2 , which carries the smaller reported EC50 figure? # respond with the chosen item's label
[reply] 1

[A] CCc1ccc(S(=O)(=O)Nc2ccnn2-c2nc(C)cs2)cc1
[B] CCc1ccc(S(=O)(=O)Nc2ccnn2-c2nc(C3CC3)ns2)cc1
[ask] Pick one: A or B . Which has the bigger EC50 number? Return value: the label identifying the chosen record.
[reply] B

Value source: patent US9751870B2
